# tested target: Human recombinant FAP (Homo sapiens, UniProt Q12884)
# Sequence (Q12884 whole entry): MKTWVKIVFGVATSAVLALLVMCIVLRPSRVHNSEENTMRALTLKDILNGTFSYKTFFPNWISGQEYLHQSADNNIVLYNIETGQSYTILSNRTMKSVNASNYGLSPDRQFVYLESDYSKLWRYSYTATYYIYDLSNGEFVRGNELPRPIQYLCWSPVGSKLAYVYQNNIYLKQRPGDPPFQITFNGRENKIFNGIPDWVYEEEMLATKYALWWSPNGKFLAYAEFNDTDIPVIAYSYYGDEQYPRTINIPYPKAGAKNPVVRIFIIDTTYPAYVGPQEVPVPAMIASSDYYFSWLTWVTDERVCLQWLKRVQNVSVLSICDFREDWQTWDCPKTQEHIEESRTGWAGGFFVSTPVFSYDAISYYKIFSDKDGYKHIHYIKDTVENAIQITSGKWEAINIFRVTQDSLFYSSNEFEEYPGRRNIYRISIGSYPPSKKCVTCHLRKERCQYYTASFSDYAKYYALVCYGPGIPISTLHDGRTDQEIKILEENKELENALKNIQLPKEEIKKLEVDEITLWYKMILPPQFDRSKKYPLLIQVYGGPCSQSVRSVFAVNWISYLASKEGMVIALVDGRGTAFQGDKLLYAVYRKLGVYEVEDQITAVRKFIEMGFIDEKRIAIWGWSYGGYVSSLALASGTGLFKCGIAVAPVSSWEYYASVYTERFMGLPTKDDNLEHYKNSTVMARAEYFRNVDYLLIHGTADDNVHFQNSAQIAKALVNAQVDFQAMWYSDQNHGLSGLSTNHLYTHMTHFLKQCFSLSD
# assay method text: FRET-based FAP protease activity assay
# Format: biochemical
# Parameters: purchased R&D systems 3715-SE
# experimental conditions: pIC50 Category (Activity), FRET-based FAP protease activity assay, recombinant human FAP, 37° C.
pIC50: −log10 of the molar value. Numbered stars: 1 amine (or outer) side, 2 acyl side, 3 side chain; on linkers, the order of the positions; unused ones are H or OH. Bridge positions count the residues as written; N and C are the ends. Square brackets hold non-standard residues; d marks the D form. Peptide text beside a SMILES is read from it. * marks the point of attachment. TBMB(SCH2CH2NH-DOTA) = O=C(O)CN1CCN(CC(=O)O)CCN(CC(=O)NCCSCc2cc(C[*:1])cc(C[*:2])c2)CCN(CC(=O)O)CC1; X32 = O=C(O)CN1CCN(CC(=O)O)CCN(CC(=O)NCc2cc(C[*:1])cc(C[*:2])c2)CCN(CC(=O)O)CC1; X12 = O=C(O)CN1CCN(CC(=O)O)CCN(CC(=O)NCCCOCCOCCOCCCN*)CCN(CC(=O)O)CC1; Oic = O=C(O)[C@@H]1C[C@@H]2CCCC[C@@H]2N1; mXylylene = c1cc(C[*:1])cc(C[*:2])c1; Tic = O=C(O)[C@@H]1Cc2ccccc2CN1; Suc = O=C(CCC(=O)[*:2])[*:1]; Nle = CCCC[C@H](N)C(=O)O; Hexanoyl = CCCCCC(=O)*; Sar = CNCC(=O)O
recorded metric: pIC50

Example entries begin here.
INSERT INTO measurements (compound, recorded_metric, result_value) VALUES
  ('CCCCCC(=O)N[C@H]1CSCc2cc(CNC(=O)CN3CCN(CC(=O)O)CCN(CC(=O)O)CCN(CC(=O)O)CC3)cc(c2)CSC[C@@H](C(=O)N[C@@H](CC(=O)O)C(N)=O)NC(=O)[C@H](Cc2ccccc2)NC(=O)[C@H](CCC(N)=O)NC(=O)[C@H]([C@@H](C)O)NC(=O)[C@@H]2CCCN2C(=O)[C@@H]2CCCN2C1=O [3BP-3556] (Hexanoyl-CPPTQFCD-NH2; linker 1-7 via X32)', 'pIC50', '7.10 to 8.00'),
  ('CSCC[C@H](NC(C)=O)C(=O)N[C@H]1CSCc2cccc(c2)CSC[C@@H](C(=O)N[C@@H](CC(=O)O)C(=O)N[C@@H](Cc2c[nH]cn2)C(=O)N[C@@H](Cc2ccccc2)C(=O)N[C@@H](CCCNC(=N)N)C(=O)N[C@@H](CC(=O)O)C(N)=O)NC(=O)[C@H](Cc2ccccc2)NC(=O)[C@H](CCC(=O)O)NC(=O)[C@H]([C@@H](C)O)NC(=O)[C@@H]2C[C@@H]3CCCC[C@@H]3N2C(=O)[C@@H]2CCCN2C1=O [3BP-3217] (Ac-MCP[Oic]TEFCDHFRD-NH2; linker 2-8 via mXylylene)', 'pIC50', '6.10 to 7.00'),
  ('CCCCCC(=O)N[C@H]1CSCc2cccc(c2)CSC[C@@H](C(N)=O)NC(=O)[C@@H]2Cc3ccccc3CN2C(=O)[C@H](CCC(=O)O)NC(=O)[C@H]([C@@H](C)O)NC(=O)[C@@H]2CCCN2C(=O)[C@@H]2CCCN2C1=O [3BP-3359] (Hexanoyl-CPPTE[Tic]C-NH2; linker 1-7 via mXylylene)', 'pIC50', '6.10 to 7.00'),
  ('CCCCCC(=O)N[C@H]1CSCc2cc(CSCCNC(=O)CN3CCN(CC(=O)O)CCN(CC(=O)O)CCN(CC(=O)O)CC3)cc(c2)CSC[C@@H](C(=O)O)NC(=O)[C@H](Cc2ccccc2)NC(=O)[C@H](CCC(N)=O)NC(=O)[C@H]([C@@H](C)O)NC(=O)[C@@H]2CCCN2C(=O)CN(C)C1=O [3BP-3678] (Hexanoyl-C[Sar]PTQFC-OH; linker 1-7 via TBMB(SCH2CH2NH-DOTA))', 'pIC50', '> 8.00');

Incoming: So what pIC50 did CCCC[C@H](NC(=O)CCC(=O)NCCCOCCOCCOCCCNC(=O)CN1CCN(CC(=O)O)CCN(CC(=O)O)CCN(CC(=O)O)CC1)C(=O)N[C@H]1CSCc2cccc(c2)CSC[C@@H](C(=O)N[C@@H](CC(=O)O)C(N)=O)NC(=O)[C@H](Cc2ccccc2)NC(=O)[C@H](CCC(=O)O)NC(=O)[C@H]([C@@H](C)O)NC(=O)[C@@H]2CCCN2C(=O)[C@@H]2CCCN2C1=O [3BP-3320] ({X12-Suc}-[Nle]CPPTEFCD-NH2; linker 2-8 via mXylylene) get with Human recombinant FAP (Homo sapiens, UniProt Q12884)?
Outgoing: > 8.00
